test system: HeLa cervix epithelioid carcinoma; test: MTT cell antiproliferative assay, HeLa; format: cell-based; details: Homo sapiens, 72 h
pIC50: −log10 of the molar value.
Reported metric: pIC50

P. COc1cc(C(=O)c2ccnc(N3CCCC3)c2)cc(OC)c1OC
Q. COc1cc(C(=O)c2ccnc(N(C)C)c2)cc(OC)c1OC
R. COc1cc(C=Cc2ccc(N(C)C)nc2)cc(OC)c1OC
S. C=C(c1ccc(N(C)C)nc1)c1cc(OC)c(OC)c(OC)c1
T. COc1cc(C(=O)c2ccc(N3CCCC3)nc2)cc(OC)c1OC
Task: Order these by pIC50, descending, and give the full ranking. Write the labels out in the order the request specifies.
Output: P, R, S, Q, T
